Experiment: gradient 5% acetonitrile 3 min, to 50% in 2 min, to 85% in 15 min, held 3 min, 100 µL/min
Settings: column: Zorbax Extend-C18 2.1 x 50 mm; eluents: water / acetonitrile, 0.1% formic acid
Outcome Measure: RP-LC retention time (s)

Example results:
compound=CCc1c(C2CCN(C(=O)c3ccnn3C)CC2)noc1N data_value=596
compound=COc1ncc(C(=O)Nc2ccc(F)c(F)c2)c(C)n1 data_value=795
compound=CC(=O)c1ccc(NC(=O)N2C[C@@H]3C[C@H](NC(=O)c4cccnc4)[C@H]2C3)cc1 data_value=627
compound=O=C1COc2ccc(S(=O)(=O)N3CCC(C(=O)NCCc4ccccc4)CC3)cc2N1 data_value=740
compound=COCCn1cc(CCNC(=O)Nc2cc(C)ccc2C)c2cccnc21 data_value=752

a: O=C(Cn1ncc2c(N3CCN(c4ccccn4)CC3)ncnc21)Nc1ccc(Cl)cn1
b: Cc1ccc2nc(-c3cccnc3)cc(C(=O)Nc3nc(-c4ccccc4)c(C)s3)c2c1
I'm curious whether a or b has the smaller RP-LC retention time number. Which is it? Lab note: record the label of whichever item you select. a

----------
Experiment: gradient 5% acetonitrile 3 min, to 50% in 2 min, to 85% in 15 min, held 3 min, 100 µL/min
Settings: column: Zorbax Extend-C18 2.1 x 50 mm; eluents: water / acetonitrile, 0.1% formic acid
Outcome Measure: RP-LC retention time (s)

molecule=Cn1nccc1-c1cccc(-c2noc(CNC(=O)c3ccco3)n2)c1 unit_name=s data_value=733
molecule=CCCNC(=O)N(C1CCOCC1)C1CCN(C(=O)c2ccsc2)CC1 unit_name=s data_value=680
molecule="Cc1c(N2C(=O)C3C4C=CC(C4)C3C2=O)c(=O)n(-c2ccccc2)n1C (stereo not given)" unit_name=s data_value=615
molecule="Cn1ncc(N2CCCC(CC(=O)N3CCC4(CC3)OCCO4)C2)cc1=O (stereo not given)" unit_name=s data_value=625
molecule=O=C1Nc2ccccc2NC12CCOCC2 unit_name=s data_value=631

----------
Assay: gradient 5% acetonitrile 3 min, to 50% in 2 min, to 85% in 15 min, held 3 min, 100 µL/min
Conditions: column: Zorbax Extend-C18 2.1 x 50 mm; eluents: water / acetonitrile, 0.1% formic acid
Outcome Measure: RP-LC retention time (s)

Example results:
compound="CCCS(=O)(=O)N1CC(=O)N(c2ccc(F)cc2)C(C)(C(=O)NC2CCCCCC2)C1 (centres undefined)" data_value=938
compound=CCN1C(=O)c2cccnc2Sc2cc(NC(=O)c3ccc(C(F)(F)F)cc3)ccc21 data_value=950
compound="CCN1C(=O)C(C)(C(=O)Nc2ccc(F)cc2F)Oc2cccnc21 (centres undefined)" data_value=875
compound=CC1CCN(S(=O)(=O)c2ccc(-c3nnc(C(=O)NCCN4CCCC4)o3)cc2)CC1 data_value=686
compound=Cc1ccc(S(=O)(=O)N2CCCN(c3ccc(=O)n(-c4ccc(F)cc4)n3)CC2)cc1C data_value=937

A: O=C(NCCN1CCOCC1)C1CCc2sc(C(=O)N3CCOCC3)cc2C1 (centres undefined)
B: Cc1ccccc1CNC(=O)c1sc(-c2cn(C)c3ncccc23)nc1C
Between A and B , which one shows the larger RP-LC retention time value? Lab note: record the label of whichever item you select. B
(B: 928 s, A: 561 s)

----------
Assay: gradient 5% acetonitrile 3 min, to 50% in 2 min, to 85% in 15 min, held 3 min, 100 µL/min
Details: column: Zorbax Extend-C18 2.1 x 50 mm; eluents: water / acetonitrile, 0.1% formic acid
Outcome Measure: RP-LC retention time (s)

Example results:
compound=CCCCN1CN=C(Nc2nc(C)c3ccccc3n2)NC1 outcome_measure="RP-LC retention time" data_value=680
compound=Cc1ccc(Nc2c(-c3nc(C)no3)cnc3nc(C)ccc23)cc1 outcome_measure="RP-LC retention time" data_value=750
compound=COc1cc(NC(=O)CSc2ncc(-c3cccc(Cl)c3)o2)cc(OC)c1OC outcome_measure="RP-LC retention time" data_value=896
compound=O=C(CSc1cc(-n2cccn2)ncn1)Nc1cc(Cl)ccc1Cl outcome_measure="RP-LC retention time" data_value=1090
compound=COc1ccc(NC2=NS(=O)(=O)C(c3ccccc3)=C2C)c(OC)c1 outcome_measure="RP-LC retention time" data_value=910
compound="CCN(CC)c1ccc(NC(=O)C2CC(=O)N(c3cccc(NC(C)=O)c3)C2)c(C)c1 (centres undefined)" outcome_measure="RP-LC retention time" data_value=573

1: Cc1cc(NC(=O)CSc2nnc(CCc3nc4ccccc4[nH]3)o2)no1
2: Cc1cccc(N2CCN(c3ccc4nnc(CCc5nc(-c6ccncc6)no5)n4n3)CC2)c1
I'm curious whether 1 or 2 has the smaller RP-LC retention time number. Which is it? Lab note: record the label of whichever item you select. 1
(1: 553 s, 2: 846 s)

----------
Assay: gradient 5% acetonitrile 3 min, to 50% in 2 min, to 85% in 15 min, held 3 min, 100 µL/min
Details: column: Zorbax Extend-C18 2.1 x 50 mm; eluents: water / acetonitrile, 0.1% formic acid
Outcome Measure: RP-LC retention time (s)

compound="Cc1nnc(N2CCCC(C(=O)NCc3ccccc3F)C2)c2nn(-c3ccccc3)c(C)c12 (stereo not drawn)" data_value=722
compound=Cc1nn(Cc2ccc(C(=O)NCC3CC3)cc2)c(C)c1S(=O)(=O)N1CCC(C)CC1 data_value=888

P: Cc1ccc2nc3c(c(C(=O)NCC(C)C)c2c1)CCC3
Q: COc1ccc(N2CC(c3noc(-c4ccc(C)c(C)c4)n3)CC2=O)cc1OC (stereo not drawn)
Between P and Q , which one shows the larger RP-LC retention time value? Lab note: record the label of whichever item you select. Q
(Q: 983 s, P: 650 s)

1: C[C@@H](Oc1ccc(S(C)(=O)=O)cc1C(=O)N1CCN(c2ncc(C(F)(F)F)cc2F)CC1)C(F)(F)F
2: CCN1C(=O)C2CC3(CCN(C(=O)C4CCCCC4)CC3)CN2C1=O (stereo not drawn)
Between 1 and 2 , which one shows the larger RP-LC retention time value? Lab note: record the label of whichever item you select. 1

1: O=S(=O)(c1ccc2nc(N3CCN(c4ccc(F)cc4)CC3)ccc2c1)N1CCCCC1
2: COCc1nc(N2CCN(c3ccc(OC)cc3)CC2)ncc1C(=O)O
Between 1 and 2 , which one shows the larger RP-LC retention time value? Lab note: record the label of whichever item you select. 1
(1: 1050 s, 2: 666 s)

P: COc1ccc(F)cc1S(=O)(=O)N1CCc2nn(C)c(=O)n2CC1
Q: COc1ccc(-n2c(=O)c(C(=O)NCc3ccc4c(c3)OCO4)c(O)c3cccnc32)cc1
I'm curious whether P or Q has the smaller RP-LC retention time number. Which is it? Lab note: record the label of whichever item you select. P

a: O=C1NCCN2CC3(CCN(S(=O)(=O)c4cccc5cccnc45)CC3)CC12 (stereo not drawn)
b: O=C(Cc1csc2nc(-c3ccccc3)cn12)N1CCN(c2ccc(Cl)cc2)CC1
Between a and b , which one shows the larger RP-LC retention time value? Lab note: record the label of whichever item you select. b

1: CN(C)S(=O)(=O)c1ccc2c(c1)N(CC(=O)NC1CCCCCCC1)C(=O)C1CCCCN21 (stereo not drawn)
2: CCc1nc(-c2csc(S(=O)(=O)N3CCCC(C(=O)Nc4c(C)cc(C)cc4C)C3)c2)no1 (stereo not drawn)
I'm curious whether 1 or 2 has the smaller RP-LC retention time number. Which is it? Lab note: record the label of whichever item you select. 1

a: CC1=C(c2ccc(C(C)C)cc2)S(=O)(=O)N=C1N1CCC(NC(=O)C2CCOC2)CC1 (stereo not drawn)
b: Cc1cnc(CCNC(=O)Nc2ccc3c(c2)OCCO3)n1C1CCC1
Between a and b , which one shows the larger RP-LC retention time value? Lab note: record the label of whichever item you select. a
(a: 788 s, b: 517 s)

P: CCOc1ccccc1NC(=O)N1CCC(CN2CCC(C)CC2)CC1
Q: Cc1cccc(C(=O)N2CCCC2c2cc(C(C)C)on2)c1 (stereo not drawn)
Between P and Q , which one shows the larger RP-LC retention time value? Lab note: record the label of whichever item you select. Q
(Q: 948 s, P: 582 s)

----------
Experiment: gradient 5% acetonitrile 3 min, to 50% in 2 min, to 85% in 15 min, held 3 min, 100 µL/min
Details: column: Zorbax Extend-C18 2.1 x 50 mm; eluents: water / acetonitrile, 0.1% formic acid
Outcome Measure: RP-LC retention time (s)

molecule=Cc1ccc(CNC(=O)c2ccc3c(c2)N(C)C(=O)c2ccccc2O3)cc1 outcome_measure="RP-LC retention time" data_value=931
molecule="CCc1ccc(CNC(=O)C2CCCN(c3ncnc4nn(-c5ccc(C)cc5)cc34)C2)cc1 (centres undefined)" outcome_measure="RP-LC retention time" data_value=787
molecule="COC(=O)c1cc(S(=O)(=O)N2CCCC2C(=O)Nc2ccc(Br)c(C)c2)cn1C (centres undefined)" outcome_measure="RP-LC retention time" data_value=1010
molecule=CCOC(=O)c1[nH]c(C)c(CN(Cc2ccco2)C(=O)c2ccco2)c1C outcome_measure="RP-LC retention time" data_value=902
molecule=Cc1ccc(NC(=O)Cn2nc(-n3cccc3)c3c(C)cc(C)nc32)c(C)c1 outcome_measure="RP-LC retention time" data_value=1080

A: Cc1oc(-c2cccc(Cl)c2)nc1Cn1nnc(-c2nc(-c3ccccc3)no2)c1C
B: Cc1nnc2c(=O)n(CC(=O)N3CCC(Cc4ccccc4)CC3)c3cccnc3n12
I'm curious whether A or B has the smaller RP-LC retention time number. Which is it? Lab note: record the label of whichever item you select. B
(B: 814 s, A: 1320 s)
